Quick reference: pIC50 of the listed items.
- target_system: Keap1/NRF2 (Homo sapiens)
- Construct: Keap1 (321-609) is diluted to 40 nM (2×) in 1× assay buffer
- Sequence (Q14145 321-609): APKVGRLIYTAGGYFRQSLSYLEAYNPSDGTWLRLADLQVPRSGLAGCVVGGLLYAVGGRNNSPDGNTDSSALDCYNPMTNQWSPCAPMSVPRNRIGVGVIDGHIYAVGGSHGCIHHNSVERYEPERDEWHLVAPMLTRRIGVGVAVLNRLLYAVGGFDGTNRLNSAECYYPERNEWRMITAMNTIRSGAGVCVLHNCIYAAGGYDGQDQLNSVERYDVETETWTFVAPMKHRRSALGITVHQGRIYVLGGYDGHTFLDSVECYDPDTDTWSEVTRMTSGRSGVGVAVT
- test_details: NRF2-Keap1 FP Assay (Kelch domain (321-609) of Keap1, TAMRA-labeled NRF2 ETGE peptide)
- condition_description: Keap1 (321-609) 20 nM, Tamra labeled peptide 8 nM
pIC50: −log10 of the molar value.

Consider the worked cases shown below.
molecule	test_result
Cn1cc([C@@H]2C[C@H]2c2c(C(=O)O)cnn2-c2cccc(N3CCC[C@H](CCC4CCCCC4)C3)c2)nn1 [Example 36c]	7.00 to 8.00
Cn1cc([C@@H]2C[C@H]2c2c(C(=O)O)cnn2-c2cccc(N3CCC[C@@H](CCC4CCCCC4)C3)c2)nn1 [Example 36d]	7.00 to 8.00
Cn1cc([C@@H]2C[C@H]2c2c(C(=O)O)cnn2-c2cccc(N3CCCC(CCC4CCCCC4)C3)c2)nn1 (stereo partly drawn)	7.00 to 8.00

Asked: Quick one: pIC50 of Cn1cc([C@@H]2C[C@H]2c2c(C(=O)O)cnn2-c2cccc(C3CCCN(C(=O)c4ccccc4)C3)c2)nn1 (stereo partly drawn) ?
Given back: 6.00 to 7.00

Asked: Quick one: pIC50 of CC1CCN(C(=O)C2CCCC(c3cccc(-n4ncc(C(=O)O)c4C4CC4)c3)C2)C1 (racemic) ?
Given back: 6.00 to 7.00

Asked: Quick one: pIC50 of CC(C)CCC1CCCN1C(=O)C1CCCC(c2cccc(-n3ncc(C(=O)O)c3C3CC3)c2)C1 (racemic) ?
Given back: 7.00 to 8.00

Asked: Quick one: pIC50 of CCCCC1CCc2cnn([C@@H]3CCC[C@@H](c4cccc(-n5ncc(C(=O)O)c5C5CC5)c4)C3)c21 (stereo partly drawn) [Example 38] ?
Given back: 5.00 to 6.00

Asked: Quick one: pIC50 of O=C(O)c1cnn(-c2cccc(C3CCCC(C(=O)N4CCCCCC4)C3)c2)c1C1CC1 (stereo not drawn) ?
Given back: 6.00 to 7.00

Asked: Quick one: pIC50 of CN(C(=O)C1CCCC(c2cccc(-n3ncc(C(=O)O)c3C3CC3)c2)C1)C1CCCCC1 (stereo not drawn) ?
Given back: 6.00 to 7.00

Asked: Quick one: pIC50 of O=C(O)c1cnn(-c2cccc([C@H]3CCC[C@@H](C(=O)N4CCCCC4)C3)c2)c1C1CC1 (racemic) ?
Given back: 6.00 to 7.00

---

- target_system: NRF2/Keap1 (Homo sapiens, UniProt Q14145)
- Construct: full length NRF2 protein and full length Keap1 protein (Keap1 exists a dimer) are used
- Sequence (Q14145 whole entry): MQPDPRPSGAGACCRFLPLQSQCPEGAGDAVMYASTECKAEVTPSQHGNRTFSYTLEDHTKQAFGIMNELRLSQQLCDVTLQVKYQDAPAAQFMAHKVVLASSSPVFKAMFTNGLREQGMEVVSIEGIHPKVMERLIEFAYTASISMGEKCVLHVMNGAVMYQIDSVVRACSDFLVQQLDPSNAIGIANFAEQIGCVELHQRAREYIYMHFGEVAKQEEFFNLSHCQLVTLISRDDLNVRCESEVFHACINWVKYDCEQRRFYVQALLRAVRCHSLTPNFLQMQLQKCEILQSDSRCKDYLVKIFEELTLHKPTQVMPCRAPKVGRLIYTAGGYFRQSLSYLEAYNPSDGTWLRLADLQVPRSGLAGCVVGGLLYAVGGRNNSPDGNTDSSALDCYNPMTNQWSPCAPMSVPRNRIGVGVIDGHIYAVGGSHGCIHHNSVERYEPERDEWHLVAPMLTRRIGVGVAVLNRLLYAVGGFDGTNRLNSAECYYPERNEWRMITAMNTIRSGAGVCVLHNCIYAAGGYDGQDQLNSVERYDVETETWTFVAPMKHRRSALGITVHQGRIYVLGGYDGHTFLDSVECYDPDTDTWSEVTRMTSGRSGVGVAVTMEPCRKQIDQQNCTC
- test_details: NRF2-Keap1 TR-FRET Low Protein Assay (full length NRF2 and full length Keap1)
- Assay type: binding
- condition_description: low protein: 1.25 nM Keap1 FlagHis, 2.5 nM biotin-NRF2 added
Where a name gives a salt, the structure may show the parent alone.
value_type: IC50

Consider the worked cases shown below.
compound	IC50
Cn1cc([C@@H]2C[C@H]2c2c(C(=O)O)cnn2-c2cccc(C3CCCN(S(=O)(=O)c4ccccc4)C3)c2)nn1 (stereo partly shown)	< 10 nM
CC1(C)CCc2cnn([C@@H]3CCC[C@@H](c4cccc(-n5ncc(C(=O)O)c5C5CC5)c4)C3)c21 (racemic)	1000 to 10000 nM
CCOC[C@@H]1CCCN1C(=O)C1CCCC(c2cccc(-n3ncc(C(=O)O)c3C3CC3)c2)C1 (single isomer, unassigned) [Example 18g]	< 10 nM
O=C(O)c1cnn(-c2cccc(C3CCCN(CC4CCCCC4)C3)c2)c1C1CC1 (stereo not shown) [Example 28, Hydrochloride]	1000 to 10000 nM
Cn1cc([C@@H]2C[C@H]2c2c(C(=O)O)cnn2-c2cccc(N3CCCC(CCC4CCCCC4)C3)c2)nn1 (stereo partly shown)	10 to 100 nM

Here is the next item to consider.
Asked: // map CCCC[C@@H]1CCCN1C(=O)[C@H]1CCC[C@@H](c2cccc(-n3ncc(C(=O)O)c3C3CC3)c2)C1 [Example 17f] to recorded IC50 (system: NRF2/Keap1 (Homo sapiens, UniProt Q14145))
Given back: < 10 nM
